- experimental.protocol: melting temperature; fluorescence melt of hairpins on a sequencing array, two-state fit, raised by 9.35 °C to match UV melts
- measurement.conditions: sodium 0.088 M
In this section, each of the sequences is paired with its reported Tm.

# sequence, Tm [°C]
rows = [
    ("GTGCATGGAAACGTGTAC ((.((.(....).)).))", 38.6),
    ("GCCCCGCGAAAGCTTGGC (((..((....))..)))", 43.1),
    ("GTCCACGGAAACGCAGAC (((..((....))..)))", 29.1),
    ("GTCCAAGGAAACTTGGAC (((((((....)))))))", 61.6),
    ("GACTTGGCGAAAGCCGTC (((..(((....))))))", 48.4),
    ("GTAACTCGAAAGAGTAC (((.(((....))))))", 42.4),
    ("GAACTTGGAAACAGGTTC ((((.((....)).))))", 41),
    ("GTCAACGAAAGTTACGAC ((((((....)))..)))", 34.5),
    ("GATCTTTGTCAAGATC ((((((....))))))", 39.9),
    ("GTCAAACGAAAGTTCGAC (((.(((....))).)))", 43.1),
    ("GATCTTTCAGAAGATC ((((((....))))))", 44.3),
    ("GTCTCCCGAAAGGGGAC (((.(((....))))))", 54.8),
]

###

- experimental.protocol: folding enthalpy; higher = less favourable; fluorescence melt of hairpins on a sequencing array, two-state fit
- measurement.conditions: sodium 0.088 M
parameter: folding enthalpy (kcal/mol)

# sequence, parameter, reported.measurement
data = [
    ("GTAAATACGAAAGTATAC (((..(((....))))))", "folding enthalpy", -9.48),
    ("GTATACCGAAAGGTGTAC (((.(((....))).)))", "folding enthalpy", -27.6),
    ("GTCATCGGAAACGGTGAC ((((.((....)).))))", "folding enthalpy", -38.1),
    ("GATTACGAAAGTATGATC ((((((....)))..)))", "folding enthalpy", -6.67),
    ("GATCTGGGAGCAGATC ((((((....))))))", "folding enthalpy", -35.4),
    ("GATCCGAATACGGATC ((((((....))))))", "folding enthalpy", -38.6),
    ("GATCCCAGGTGGGATC ((((((....))))))", "folding enthalpy", -37),
    ("GCGGAGGCCGC ((((...))))", "folding enthalpy", -18),
    ("GTTGTCCCGAAAGGGAAC (((..(((....))))))", "folding enthalpy", -20.7),
    ("GCCCCGACGAAAGTCGGC (((..(((....))))))", "folding enthalpy", -4.92),
    ("GATCCTATAGAGGATC ((((((....))))))", "folding enthalpy", -28.9),
    ("GATCGGCCGAAAGGCATC (((..(((....))))))", "folding enthalpy", -6.97),
]

###

- experimental.protocol: folding enthalpy; higher = less favourable; fluorescence melt of hairpins on a sequencing array, two-state fit
- measurement.conditions: sodium 0.088 M
Reported folding enthalpy is given for each of the following sequences.

# sequence, folding enthalpy
measured = [
    ("GATGTTGGAAACAGTATC (((..((....))..)))", "-10.2 kcal/mol"),
    ("GATCCTCCTGAGGATC ((((((....))))))", "-41.2 kcal/mol"),
    ("GATCGGAAAGCCGATC ((((((....))))))", "-35.4 kcal/mol"),
    ("GTCCGTGGAAACATGGAC ((((.((....)).))))", "-36.9 kcal/mol"),
    ("GATCATAGGTATGATC ((((((....))))))", "-40.5 kcal/mol"),
    ("GATCAGCTTCTGATC ((((((...))))))", "-31.5 kcal/mol"),
    ("GATCACTGTCGTGATC ((((((....))))))", "-37.3 kcal/mol"),
    ("GAATTCCGAAAGGATTC (((.(((....))))))", "-20.2 kcal/mol"),
    ("GGGTGCGGAAACGCGTCC ((..(((....)))..))", "-19.7 kcal/mol"),
    ("GCTAATGGAAACGTTAGC (((((.(....).)))))", "-29.7 kcal/mol"),
    ("GACGATCCGAAAGGAGTC (((..(((....))))))", "-22.1 kcal/mol"),
    ("GTCCTTGGAAACAAGGAC (((((((....)))))))", "-38.8 kcal/mol"),
    ("GATTGAGGAAACTTGATC (((..((....))..)))", "-7.66 kcal/mol"),
    ("GGAGGTGCGAAAGCATCC (((..(((....))))))", "-11.6 kcal/mol"),
    ("GGATCCGGAAACGGGTTC (.(.(((....))).).)", "-16.8 kcal/mol"),
    ("GGCAATTCGAAAGAAGCC (((..(((....))))))", "-24.7 kcal/mol"),
    ("AATTGGAAACAATT (((((....)))))", "-11.3 kcal/mol"),
    ("GAAACGGAAACGTTTC ((((((....))))))", "-39.8 kcal/mol"),
    ("GATCGGTGACCCGATC ((((((....))))))", "-36.5 kcal/mol"),
    ("GATCCCGTCTGGGATC ((((((....))))))", "-39.2 kcal/mol"),
    ("GAGAGCGAAAGCTTCCTC ((((((....)))..)))", "-10.7 kcal/mol"),
    ("AGCTGGAAACAGCT (((((....)))))", "-23.3 kcal/mol"),
    ("GCCTTGCGAAAGCAGTGC ((..(((....)))..))", "-11.6 kcal/mol"),
    ("GCCTCTGGAAACAGAGAC (.(((((....))))).)", "-18.7 kcal/mol"),
    ("GCAACCGAAAGGTTCTGC ((((((....)))..)))", "-14.9 kcal/mol"),
    ("GACACCGAAAGGTTTGTC ((((((....)))..)))", "-15.1 kcal/mol"),
]

Data credit: the array DNA melting data of Ke et al. (doi:10.1101/2024.01.08.574731)
